Readings of growth for the listed compounds
- Tested on: M14 melanoma
- experimental_protocol: NCI-60 one-dose screen, 48 h (100 = growth as untreated, 0 = no growth, -100 = all killed)
- test_context: 10 µM unless noted
The panel holds about 83,000 compounds, 20% with a hit somewhere; the sample as a whole holds those more often.
Answer with a number only, understood to be in %.

These solved cases illustrate the format of a correct answer.
• OC(c1cc(C(F)(F)F)nc2c(C(F)(F)F)cccc12)C1CCCCN1 (stereo not given) = 76
• COC(=O)CCC1=C(C)/C(=C/c2[nH]c(-c3ccc[nH]3)cc2OC)N=C1C = 4.36
• Cc1nn(-c2ccc(Br)cc2)c2nc3c(nc12)C(=O)C(=O)c1ccccc1-3 = 98.2
• COc1ccc(-c2csc(NC(=O)c3cc(O)c(O)c(O)c3)n2)cc1 = 63.2

We now examine a further compound.
Would you mind telling me what growth value was observed for CCOC(=O)C1=C(COCCN)NC(C)=C(C(=O)OC)C1c1ccccc1Cl (stereo not given) ? 48.6

----------
- System: SW-620 colon
- experimental_protocol: NCI-60 one-dose screen, 48 h (100 = growth as untreated, 0 = no growth, -100 = all killed)
- test_context: 10 µM unless noted
- Protocol: Growth inhibition of the SW-620 human tumor cell line is measured as a screen for anti-cancer activity. Cells are grown in 96 well plates and exposed to the test compound for 48 hours. Compounds are tested at a single concentration, which is 10^-5 M for most compounds. The reported endpoint is percent growth (GI% or GIPRCNT), where numbers from 0 - 100% represent growth inhibition, and numbers from -100% - 0 represent cell death. For example, a value of 40 represents 60% growth inhibition. […]
This is part of a sample that, as a whole, favours compounds with a hit. Of some 83,000 tested, about 20% had one in any assay. The source made the active and inactive calls. The calls were made as follows: active = growth percent below 10; inactive = the rest.
parameter: growth

* Cn1c(=O)c2c(nc(Br)n2CCC(=O)Nc2ccc(F)cc2)n(C)c1=O | 103% (inactive)
* c1ccc(-c2nnc(Nc3nnc(-c4ccccc4)s3)s2)cc1 | 98% (inactive)
* COc1ccc2c(c1)/C(=C\c1c[nH]c3ccc(F)cc13)C(=O)N2 | 107% (inactive)
* Cc1cc(C(C)(C)C)cc(C)c1CC1=NCCN1 | 108% (inactive)
* O=C(CCc1nnc(SCc2ccccc2)s1)c1nc2ccccc2[nH]1 | 107% (inactive)

# lookup: growth of Cn1cc(-c2csc(-c3c[nH]c4ncccc34)n2)c2cc(F)cnc21 81.3% (inactive)

Now try CCOc1ccccc1C(=O)OCC(=O)Nc1cccc(S(=O)(=O)N(C)C)c1 . 97% (inactive)

And what about the compound Nc1nc2ncc(CCNc3ccc(C(=O)NC(CCC(=O)O)C(=O)O)cc3)nc2c(=O)[nH]1 (stereo not given) ? 103% (inactive)

Param item: O=c1[nH]c(=O)n(C2CC(O)C(CO)O2)cc1C(F)(F)F (stereo not given) 52.7% (inactive)

Also, C=C(C)[C@H]1CC/C(C)=C/CC[C@]2(C)O[C@H]2CC/C(COC(C)=O)=C\C1=O please. 109% (inactive)

----------
- Test system: SF-268 CNS
- experimental_protocol: NCI-60 one-dose screen, 48 h (100 = growth as untreated, 0 = no growth, -100 = all killed)
- test_context: 10 µM unless noted
Compounds without any hit were thinned out: in the full panel of roughly 83,000, 20% have a hit.
I'd appreciate it if you marked entries y when growth is lower than 80% and n when it is not.

• Cc1cc(C(=O)O)c(C)cc1C(=O)O = n
• CCC(C)CC(C)C(=O)c1c(O)ccn(OC)c1=O (stereo not drawn) = y
• O=C1NC(=O)/C(=C\c2ccccc2)C2=C1CCCC2 = y
• Fc1ccc([C@@H]2CCNC[C@H]2COc2ccc3c(c2)OCO3)cc1 = n
• O=C(NCCc1ccccc1)C1CCC(=O)N1Cc1ccc(Br)cc1 (stereo not drawn) = n

Dear reviewer, please state whether O=C1C(=O)c2ccc(Br)cc2-c2cc(Br)ccc21 has growth strictly beneath 80%. y

What would you report for COc1cccc(/C=C2\COc3ccc(O)c(O)c3C2=O)c1OC ? y

What do you get for c1cnc2ccc3ncccc3c2c1 ? n

Follow-up entry: C[n+]1ccc(Nc2ccc(NC(=O)c3ccc(Nc4cc[n+](C)c5ccc(N)cc45)cc3)cc2)cc1 n
